Assay System: recombinant human PD-L1 (Sino Biological Inc.) (human, UniProt Q9NZQ7 19-239)
Sequence (Q9NZQ7 19-239 limits assumed): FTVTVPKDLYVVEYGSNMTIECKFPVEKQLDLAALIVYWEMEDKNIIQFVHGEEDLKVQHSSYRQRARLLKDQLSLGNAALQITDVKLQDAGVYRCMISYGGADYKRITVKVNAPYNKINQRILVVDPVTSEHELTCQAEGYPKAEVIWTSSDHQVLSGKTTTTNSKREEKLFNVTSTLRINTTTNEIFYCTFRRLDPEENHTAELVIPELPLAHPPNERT
Method Summary: affinity determination (dissociation constant), method not stated
Could you please report measured koff for the items listed next?
One number for each entry, in s⁻¹.

These recorded examples may help you get a feel for the data.
| Binder | Quantitative Readout |
| --- | --- |
| humanized anti-human PD-L1 monoclonal antibody VLS10-VHS5 (antibody, human IgG1, kappa, V domains shown) VH: QVQLVQSGAEVKKPGSSVKVSCTASGFNIEDTYIHWVRQAPGQGLEWMGRIDPANGNTKYDPKFQGRATITADTSTSTAYMELSSLRSEDTAVYYCGRGLGAWFAYWGQGTLVTVSS VL: DIQMTQSPSSLSASVGDRVTITCKASQDVHTAVAWIHQKPGKAPKLLIYSASNRYTGVPSRFSGSGSGTDFTFTISSLQPEDIATYYCQQHYITPLTFGQGTKLEIKR | 0.000994 |
| humanized anti-human PD-L1 monoclonal antibody VLS15-VHS14 (antibody, human IgG1, kappa, V domains shown) VH: EVQLVQSGAEVKKPGSSVKVSCKASGFNIEDTYIHWVRQAPGQGLEWIGRIDPANGNTKYDPKFQGRATITADTSTNTAYMELSSLRSEDTAVYYCGRGLGAWFAYWGQGTLVTVSS VL: DIQMTQSPSSLSASVGDRVTITCKASQDVHTAVAWIQQKPGKSPKLLIYSASNRYTGVPSRFSGSGSGTDFTFTISSLQPEDIATYYCQQHYITPLTFGQGTKLEIKR | 0.000452 |

Return reported koff; argument: humanized anti-human PD-L1 monoclonal antibody VLS10-VHS1 (antibody, human IgG1, kappa, V domains shown) VH: QVQLVQSGAEVKKPGSSVKVSCTASGFNIEDTYIHWVRQAPGQGLEWMGRIDPANGNTKYDPKFQGRVTITADESTSTAYMELSSLRSEDTAVYYCGRGLGAWFAYWGQGTLVTVSS VL: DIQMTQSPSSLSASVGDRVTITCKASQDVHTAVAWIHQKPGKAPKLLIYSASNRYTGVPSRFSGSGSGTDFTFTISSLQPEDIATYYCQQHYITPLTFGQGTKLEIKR
0.00424
